Just for reference, BigSolDB 2.1 is where these values come from.

# Study conditions: in n-heptane, 315.4 K
Measured parameter: solubility (mole fraction)

Q. // fetch solubility (mole fraction) given entry CC(=O)c1ccc2ccccc2c1O
A. 0.0239

---

# Study conditions: in ethanol, 327.35 K
Measured parameter: solubility (mole fraction)
Lab note: jot down the number only; don't add units.

Q. Check the records and state solubility (mole fraction) for CC(=O)c1ccc2ccccc2c1O
A. 0.025

---

# Study conditions: in n-butanol, 308.25 K
Measured parameter: solubility (mole fraction)
// return just the number, without any unit appended

Q. Assign solubility (mole fraction) to the following record: CC(=O)c1ccc2ccccc2c1O
A. 0.0179

---

# Study conditions: in n-hexane, 305.2 K
Measured parameter: solubility (mole fraction)
Reply with just the number.

Q. Report measured solubility (mole fraction); entry is CC(=O)c1c(O)ccc2ccccc12
A. 0.0242

---

# Study conditions: in n-butanol, 312.75 K
Measured parameter: solubility (mole fraction)

Q. Fill in reported solubility (mole fraction) for this entry: CC(=O)c1ccc2ccccc2c1O
A. 0.0219

---

# Study conditions: in ethanol, 307.95 K
Measured parameter: solubility (mole fraction)
Respond numerically, and do not add a unit to the figure.

Q. For CC(=O)c1ccc2ccccc2c1O , write its solubility (mole fraction).
A. 0.0104

---

# Study conditions: in n-heptane, 288.75 K
Measured parameter: solubility (mole fraction)
The response must contain the number and no unit.

Q. Return the recorded solubility (mole fraction) value; entry: CC(=O)c1c(O)ccc2ccccc12
A. 0.0133

---

# Study conditions: in n-heptane, 322.05 K
Measured parameter: solubility (mole fraction)
# answer = number (no unit)

Q. Assign solubility (mole fraction) to the following record: CC(=O)c1c(O)ccc2ccccc12
A. 0.079

---

# Study conditions: in n-heptane, 321.65 K
Measured parameter: solubility (mole fraction)
Write no unit; give the number alone.

Q. State, in one line, measured solubility (mole fraction) of CC(=O)c1ccc2ccccc2c1O
A. 0.0306

---

# Study conditions: in n-heptane, 332.65 K
Measured parameter: solubility (mole fraction)
Answer with the value's number alone.

Q. Read the entry CC(=O)c1ccc2ccccc2c1O and write its reported solubility (mole fraction).
A. 0.05

---

# Study conditions: in n-butanol, 288.55 K
Measured parameter: solubility (mole fraction)
Quick one: just the number, no unit, thanks!

Q. Give the reported value of solubility (mole fraction) for this record: CC(=O)c1c(O)ccc2ccccc12
A. 0.0724

---

# Study conditions: in n-heptane, 306.55 K
Measured parameter: solubility (mole fraction)
Enter a number only.

Q. Please indicate solubility (mole fraction) recorded for CC(=O)c1c(O)ccc2ccccc12
A. 0.0305

---

# Study conditions: in n-heptane, 328.45 K
Measured parameter: solubility (mole fraction)

Q. Specify measured solubility (mole fraction) for CC(=O)c1c(O)ccc2ccccc12 .
A. 0.166

---

# Study conditions: in n-butanol, 325.85 K
Measured parameter: solubility (mole fraction)
// print number alone

Q. Kindly indicate its recorded solubility (mole fraction). Item: CC(=O)c1ccc2ccccc2c1O
A. 0.0431

---

# Study conditions: in ethanol, 310.05 K
Measured parameter: solubility (mole fraction)

Q. Consider the compound CC(=O)c1c(O)ccc2ccccc12 and give its recorded solubility (mole fraction).
A. 0.234

---

# Study conditions: in cyclohexane, 324.75 K
Measured parameter: solubility (mole fraction)
No unit in the answer, only the number.

Q. Supply solubility (mole fraction) value. Item: CC(=O)c1ccc2ccccc2c1O
A. 0.0382
